# ASSAY_SYSTEM: urokinase enzyme Abbokinase (Homo sapiens, UniProt P00749)
# Construct: purchased Abbott Laboratories, Abbott Park, Ill
# EXPERIMENT_DESCRIPTION: Determination of urokinase inhibition (Abbokinase, chromogenic substrate S-2444)
# Format: biochemical
# CONDITION_SET: Inhibitory potency against urokinase; substrate S-2444 at 200 μM, enzyme 2-3 nM, pH 7.4, 405 nm; read-out: IC50
pIC50: −log10 of the molar value.

COMPOUND	pIC50
N=C(N)c1ccc2cc(CCc3ccccc3)ccc2c1 [Example 42]	5.68
COC(=O)NCc1cccc2ccc(C(=N)N)cc12 [Example 155]	5.63
COC(=O)Nc1cc(C(=O)OC)cc2ccc(C(=N)N)cc12 [Example 26]	7.40
Cc1cc(NC(=O)c2ccc3cc(C(=N)N)ccc3c2)no1 [Example 192]	5.80
N=C(N)c1ccc2cc(C#CCNC(=O)c3cccc(N)c3)ccc2c1 [Example 35]	5.40
COC(=O)Nc1cc(C(=O)Nc2ccc(CN)cc2)cc2ccc(C(=N)N)cc12 [Example 141]	8.93
N=C(N)c1ccc2cc(OCC(=O)O)ccc2c1 [Example 212]	5.29
N=C(N)c1ccc2cc(C#CCCc3ccccc3)ccc2c1 [Example 28]	5.68
CCCSc1cc(-c2cc(C(=O)Nc3ccccc3)cc3ccc(C(=N)N)cc23)co1 [Example 201]	7.11
COC(=O)c1ccc(COc2ccc3cc(C(=N)N)ccc3c2)cc1 [Example 213]	5.34
COc1ccc2ccc(C(=N)N)cc2c1Oc1c(F)c(F)c(F)c(F)c1F [Example 67]	5.56
COc1ccc2ccc(C(=N)N)cc2c1Oc1nccs1 [Example 65]	6.27
CC(C)(C)OC(=O)NCC1CCC(C(=O)Nc2ccc3cc(C(=N)N)ccc3c2)CC1 (stereo not shown) [Example 137]	6.09

* * *

# ASSAY_SYSTEM: urokinase enzyme Abbokinase (Homo sapiens, UniProt P00749)
# Construct: purchased Abbott Laboratories, Abbott Park, Ill
# EXPERIMENT_DESCRIPTION: Determination of urokinase inhibition (Abbokinase, chromogenic substrate S-2444)
# Format: biochemical
# CONDITION_SET: IC50
PROPERTY_NAME: IC50 (nM)

COMPOUND	PROPERTY_NAME	NUMERIC_VALUE
COc1ccc2ccc(C(=N)N)cc2c1C1CCOC1 (racemic)	IC50	640

* * *

# ASSAY_SYSTEM: urokinase enzyme Abbokinase (Homo sapiens)
# Construct: purchased Abbott Laboratories, Abbott Park, Ill
# EXPERIMENT_DESCRIPTION: Determination of urokinase inhibition (Abbokinase, chromogenic substrate S-2444)
# Format: biochemical
# CONDITION_SET: Inhibitory potency against urokinase; substrate S-2444 at 200 μM, enzyme 2-3 nM, pH 7.4, 405 nm; read-out: IC50
pIC50: −log10 of the molar value.
# pIC50 listing for each entry below

COMPOUND	ASSAY_SYSTEM	pIC50
N=C(N)c1ccc2cc(C(=O)Nc3ccc(N)cc3)ccc2c1 [Example 9]	urokinase enzyme Abbokinase (Homo sapiens)	5.96
COC(=O)CCCCOc1ccc2ccc(C(=N)N)cc2c1 [Example 119]	urokinase enzyme Abbokinase (Homo sapiens)	5.36
[H]/N=C(/N)c1ccc2ccc(OC)c(C=Cc3ccccc3)c2c1 [Example 27]	urokinase enzyme Abbokinase (Homo sapiens)	6.03
CN(C(=O)Nc1ccc2cc(C(=N)N)ccc2c1)c1ccccc1 [Example 72]	urokinase enzyme Abbokinase (Homo sapiens)	5.37
[H]/N=C(/N)c1ccc2cc(C=Cc3cccc(CO)c3)ccc2c1 [Example 96]	urokinase enzyme Abbokinase (Homo sapiens)	6.07
